Each entry below lists one item and its recorded SI (CC50/IC50) value.
System: HIV-1 subtype B (NL4.3 virus)
Experiment: Luciferase-based antiviral assay in TZM-bl cells
Conditions: selectivity index, TZM-bl CC50 / HIV-1 IC50
parameter: SI (CC50/IC50)

compound	parameter	observed_result
COc1ccc(NCc2cn(-c3ccnc4cc(Cl)ccc34)nn2)cc1 [Compound 11j]	SI (CC50/IC50)	0.02
Clc1cccc(NCc2cn(-c3ccnc4cc(Cl)ccc34)nn2)c1 [Compound 11e]	SI (CC50/IC50)	1.17
O=[N+]([O-])c1cccc(NCc2cn(-c3ccnc4cc(Cl)ccc34)nn2)c1 [Compound 11i]	SI (CC50/IC50)	0.05
Fc1cccc(NCc2cn(-c3ccnc4cc(Cl)ccc34)nn2)c1 [Compound 11h]	SI (CC50/IC50)	2472.87
Clc1ccc2c(-n3cc(CNc4ccccc4)nn3)ccnc2c1 [Compound 11a]	SI (CC50/IC50)	58.75
Clc1ccc2c(-n3cc(CNc4ccc(I)cc4)nn3)ccnc2c1 [Compound 11c]	SI (CC50/IC50)	6.76

* * *

Tested on: TZM-bl cell line
Experiment: MTT cytotoxicity evaluation
Conditions: read-out: Cytotoxicity CC50 TZM-bl Cell Line; MTT assay
parameter: CC50

molecule	parameter	observed_result
Clc1ccc2c(-n3cc(CNc4ccccc4)nn3)ccnc2c1 [Compound 11a]	CC50	177 µM

* * *

Test system: HIV-1 subtype B (NL4.3 virus)
Test: Luciferase-based antiviral assay in TZM-bl cells
Settings: Human immunodeficiency virus 1, TZM-bl, 48 h, read-out: Anti-HIV HIV-1 Subtype B IC50, NL4.3 virus in TZM-bl cells, 48 h, luciferase
For each record, check the reported IC50: if it is below 3 µM write Met, else write Not met.

molecule	class_label
O=[N+]([O-])c1cccc(NCc2cn(-c3ccnc4cc(Cl)ccc34)nn2)c1 [Compound 11i]	Met
Clc1cccc(NCc2cn(-c3ccnc4cc(Cl)ccc34)nn2)c1 [Compound 11e]	Not met
Fc1cccc(NCc2cn(-c3ccnc4cc(Cl)ccc34)nn2)c1 [Compound 11h]	Met
Clc1ccc2c(-n3cc(CNc4ccc(I)cc4)nn3)ccnc2c1 [Compound 11c]	Not met
FC(F)(F)c1ccccc1NCc1cn(-c2ccnc3cc(Cl)ccc23)nn1 [Compound 11g]	Met
COc1ccc(NCc2cn(-c3ccnc4cc(Cl)ccc34)nn2)cc1 [Compound 11j]	Not met
Cc1cn([C@H]2C[C@H](N=[N+]=[N-])[C@@H](CO)O2)c(=O)[nH]c1=O [AZT, azidothymidine, reference compound]	Met
Clc1ccc2c(-n3cc(CNc4ccc(Br)cc4)nn3)ccnc2c1 [Compound 11b]	Not met
